meta.source: PubChem BioAssay AID1671463

measured-target: Atrial natriuretic peptide receptor 1 (Homo sapiens) (UniProt P16066)
Sequence (P16066 whole entry, looked up): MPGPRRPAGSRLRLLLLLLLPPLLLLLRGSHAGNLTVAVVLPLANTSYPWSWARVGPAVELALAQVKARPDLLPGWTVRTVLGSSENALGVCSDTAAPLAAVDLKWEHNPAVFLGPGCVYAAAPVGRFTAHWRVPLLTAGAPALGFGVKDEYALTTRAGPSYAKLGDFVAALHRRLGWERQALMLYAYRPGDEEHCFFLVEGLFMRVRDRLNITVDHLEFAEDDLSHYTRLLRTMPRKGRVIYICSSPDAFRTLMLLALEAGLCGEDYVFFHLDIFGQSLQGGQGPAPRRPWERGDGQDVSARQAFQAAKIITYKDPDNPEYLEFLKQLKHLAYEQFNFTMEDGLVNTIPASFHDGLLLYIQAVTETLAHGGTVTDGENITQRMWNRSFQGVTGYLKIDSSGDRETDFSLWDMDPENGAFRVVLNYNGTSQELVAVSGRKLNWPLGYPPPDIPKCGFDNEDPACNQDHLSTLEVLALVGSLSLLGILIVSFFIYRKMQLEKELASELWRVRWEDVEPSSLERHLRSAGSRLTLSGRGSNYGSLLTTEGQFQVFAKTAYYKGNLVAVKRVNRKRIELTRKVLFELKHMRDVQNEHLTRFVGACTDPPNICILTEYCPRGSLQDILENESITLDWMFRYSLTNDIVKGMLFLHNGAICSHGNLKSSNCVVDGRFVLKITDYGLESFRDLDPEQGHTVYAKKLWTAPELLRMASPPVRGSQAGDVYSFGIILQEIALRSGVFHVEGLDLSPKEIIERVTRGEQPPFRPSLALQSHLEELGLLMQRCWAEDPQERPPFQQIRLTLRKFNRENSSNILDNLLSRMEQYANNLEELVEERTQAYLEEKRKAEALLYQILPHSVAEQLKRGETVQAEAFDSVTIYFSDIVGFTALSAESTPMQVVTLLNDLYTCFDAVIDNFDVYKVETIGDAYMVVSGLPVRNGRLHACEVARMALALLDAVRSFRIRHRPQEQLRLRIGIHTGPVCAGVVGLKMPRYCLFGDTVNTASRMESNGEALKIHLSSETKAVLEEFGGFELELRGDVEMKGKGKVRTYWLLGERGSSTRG
assay-procedure: GC-A stimulated cGMP production enhancers – HEK293 GC-A cells, cGMP TR-FRET, EC30 ANP, primary screen (AID 1671463)
test-conditions: at 10 µM, 0% at EC30 ANP, 100% saturating ANP
Hit rate of the full screen: of about 370,000 compounds, about 520 (0.14%) were called active. Cut-off read from the data, not from the text of the source: active = activation above about 40%; inactive = the rest. Many of the other results were omitted from the sample, so actives are more common in it than they were.
Outcome codes: yes (1) for active, no (0) for inactive

> print(dat)
                                    compound                           measured.target  discrete.label
 1          CCc1ccc(Oc2coc3cc(O)ccc3c2=O)cc1  Atrial natriuretic peptide receptor 1 (Homo sapiens) (UniProt P16066)          no (0)
 2    O=C(CSc1nnc(-c2ccncc2)o1)Nc1cccc(Cl)c1  Atrial natriuretic peptide receptor 1 (Homo sapiens) (UniProt P16066)          no (0)
 3  CCCCOc1ccc(N(CC(=O)NCC2CCCO2)C(=O)CCC(=O)Nc2cc(C)ccn2)cc1 (configuration not stated)  Atrial natriuretic peptide receptor 1 (Homo sapiens) (UniProt P16066)          no (0)
 4  O=C(COC(=O)CSc1nnc(-c2ccc(Cl)cc2)o1)Nc1cc(Cl)cc(Cl)c1  Atrial natriuretic peptide receptor 1 (Homo sapiens) (UniProt P16066)         yes (1)
 5    O=C(Nc1ccon1)c1nc[nH]c1C(=O)NCc1ccccc1  Atrial natriuretic peptide receptor 1 (Homo sapiens) (UniProt P16066)          no (0)
 6         NC(N)=NCCCc1cn(CC(=O)N2CCNCC2)nn1  Atrial natriuretic peptide receptor 1 (Homo sapiens) (UniProt P16066)          no (0)
 7  Cc1ccccc1CN1CCCCC(NC(=O)c2cccc(C#N)c2)C1=O (configuration not stated)  Atrial natriuretic peptide receptor 1 (Homo sapiens) (UniProt P16066)          no (0)
 8       CCc1c(C)sc(NC(=O)OC)c1C(=O)N1CCOCC1  Atrial natriuretic peptide receptor 1 (Homo sapiens) (UniProt P16066)          no (0)
 9  COCCN(Cc1ccccc1)C(=O)Cc1ccc(S(=O)(=O)N2CCOCC2)s1  Atrial natriuretic peptide receptor 1 (Homo sapiens) (UniProt P16066)          no (0)
10  CC(=O)Oc1c(C(=O)c2nnc(C)o2)c(=O)n(Cc2ccccc2)c2ccccc12  Atrial natriuretic peptide receptor 1 (Homo sapiens) (UniProt P16066)          no (0)
11  c1coc(CCNc2ncnc3ccc(-c4ccc5c(c4)OCO5)cc23)c1  Atrial natriuretic peptide receptor 1 (Homo sapiens) (UniProt P16066)         yes (1)
12  Cc1ccc(N2C(=O)C3C4C=CC(CC4)C3C2=O)cc1Cl (configuration not stated)  Atrial natriuretic peptide receptor 1 (Homo sapiens) (UniProt P16066)          no (0)
13  COC(=O)COc1ccc2c(=O)c(Oc3ccccc3Br)coc2c1  Atrial natriuretic peptide receptor 1 (Homo sapiens) (UniProt P16066)         yes (1)
14  O=c1c2ccccc2c(-c2ccc(Br)cc2)nn1Cc1ccccc1  Atrial natriuretic peptide receptor 1 (Homo sapiens) (UniProt P16066)          no (0)
15  O=C(NCCCO)/C(=C\C=C\c1ccccc1)NC(=O)c1ccccc1Cl  Atrial natriuretic peptide receptor 1 (Homo sapiens) (UniProt P16066)          no (0)
16  CCc1ccc(Oc2coc3cc(OC(=O)c4cc5ccccc5oc4=O)ccc3c2=O)cc1  Atrial natriuretic peptide receptor 1 (Homo sapiens) (UniProt P16066)          no (0)
17  CCOc1ccccc1N1CCN(C(=S)Nc2ccc(S(N)(=O)=O)cc2)CC1  Atrial natriuretic peptide receptor 1 (Homo sapiens) (UniProt P16066)          no (0)
18  COc1ccc(C(CC(=O)c2ccccc2)S(=O)(=O)c2ccccc2)cc1 (configuration not stated)  Atrial natriuretic peptide receptor 1 (Homo sapiens) (UniProt P16066)          no (0)
19  Cc1ccsc1C1C(C#N)=C(N)OC2=C1C(=O)CC(C)(C)C2 (configuration not stated)  Atrial natriuretic peptide receptor 1 (Homo sapiens) (UniProt P16066)          no (0)
20  COC(=O)c1ccc(C2C3=C(Nc4nnnn42)c2ccccc2OC3)cc1 (configuration not stated)  Atrial natriuretic peptide receptor 1 (Homo sapiens) (UniProt P16066)          no (0)
21                   Cc1ccsc1C(=O)NCCc1ccco1  Atrial natriuretic peptide receptor 1 (Homo sapiens) (UniProt P16066)          no (0)
22  COC(=O)CN1C(=O)[C@H]2[C@@H](C3CC3)N3C(=O)CN(Cc4ccc(-c5ccccc5)cc4)C(=O)[C@@]3(Cc3ccccc3)[C@H]2C1=O  Atrial natriuretic peptide receptor 1 (Homo sapiens) (UniProt P16066)          no (0)

----------
Attribute: activation
measured-target: Atrial natriuretic peptide receptor 1 (Homo sapiens) (UniProt P16066)
assay-procedure: GC-A stimulated cGMP production enhancers – HEK293 GC-A cells, cGMP TR-FRET, EC30 ANP, primary screen (AID 1671463)
test-conditions: at 10 µM, stronger effect = higher value, 0% at EC30 ANP, 100% saturating ANP
Among all 370,000 compounds or so, about 520 (0.14%) were called active. This excerpt belongs to a sample that is enriched for actives.
assay-readout: activation (%)

> print(dat)
                                    compound  assay.readout  reported.value
 1          O=C1C=CC(=O)N1c1ccc(N2CCCCC2)cc1     activation            50.5
 2  O=C(CN1C2CCC1CC(NC(=O)C1CC1)C2)NCc1ccccc1 (centres undefined)     activation            0.13
 3                    COc1ccc(NC(=S)SC)cc1OC     activation            1.77
 4  CC(C)Oc1ccc(S(=O)(=O)N2CCOCC2)cc1NC(=O)C1CCCC1     activation               0
 5         CCOC(=O)CNc1nc(Cl)nc(Nc2ccccc2)n1     activation           -0.38
 6  CCN(CC)S(=O)(=O)c1ccc(CNC(=O)CN2C(=O)NC3(CCc4ccccc43)C2=O)cc1 (centres undefined)     activation            -0.1
 7  CC1(C)Cc2nc3sc4c(SCC(=O)NC(c5ccccc5)c5ccccc5)ncnc4c3cc2CO1     activation            52.8
 8  Cc1nc(-c2ccc(Cl)cc2)sc1C1(C)CC(c2ccc(Br)cc2)=NO1 (centres undefined)     activation           -0.28
 9  CCCc1cc(=O)[nH]c(SCC(=O)c2c(N)n(CC(C)C)c(=O)n(C)c2=O)n1     activation           -6.69
10  CC(C)CCSc1ncnc2c1oc1nc3c(cc12)COC(C)(C)C3     activation            -1.1
11  CC(C)Oc1ccc(C(CC(=O)N2CCOCC2)C(C)C)cc1 (centres undefined)     activation           -1.14
12  CS(=O)(=O)c1ccc2nc(NC(=O)c3ccc(N4CCCC4=O)cc3)sc2c1     activation            62.2
13           CSCC[C@H](NC(=O)NC1CCCC1)C(=O)O     activation            0.42
14  Cc1nc(-c2ccc(Cl)cc2)sc1C1(C)CC(c2ccccc2F)=NO1 (centres undefined)     activation            2.63
15  CCCCCn1c(SCCC(C)C)nc2c1c(=O)[nH]c(=O)n2C     activation            1.84
16  Cc1ccc(C(=O)NC(=S)Nc2ccc3[nH]c(=O)[nH]c3c2)cc1C     activation           -4.45
17           CCCn1nnnc1NC(=O)COc1ccc(Cl)cc1C     activation            0.54
18     CCCCS(=O)c1snnc1C (centres undefined)     activation            1.27
19  CN1C[C@]2(C=C3CCCCC3n3c(=O)n(-c4ccccc4)c(=O)n32)N=C1NC(=O)c1ccccc1 (some centres undefined)     activation           -1.71
20  COc1ccc(C2OC(=O)CC2C(=O)NC(C)C)cc1 (centres undefined)     activation           -0.27
21  Cc1ccc(C(c2nnnn2CS(=O)(=O)c2ccc(C)cc2)N2CCC(C)CC2)cc1 (centres undefined)     activation           -0.04
22  CCc1nc2c(OCc3cccc(OC)c3)cccn2c1N(C)C(=O)C(C)C     activation           -2.25
23         O=C(/C=C/Sc1ncn[nH]1)c1ccc(Cl)cc1     activation            64.8
24  COc1ccc(C2CC(c3cccc(OC)c3)=NN2c2ccc(S(N)(=O)=O)cc2)cc1 (centres undefined)     activation            6.44
25  Cc1cc(=O)n2nc(N3CCC(C(=O)Nc4c(F)c(F)c(F)c(F)c4F)CC3)sc2n1     activation             0.6
26  Cc1ccc(S(=O)(=O)CC(=O)NC(C)c2ccccc2)cc1 (centres undefined)     activation            4.14
27  CCCCCCCCN1C(=O)[C@@H](CC(=O)NCc2ccccc2)C[C@@]2(C(=O)OC)C1=C[C@H](C(C)(C)C)O[C@@H]2C     activation            2.65
28  Cc1cccc(C(=O)Nc2ccccc2-c2nnn(CC(=O)Nc3ccc4c(c3)OCCO4)n2)c1     activation           -13.7
29  O=C1C=C(c2ccnc3cc(Cl)ccc23)C[C@@H](c2ccc3c(c2)OCO3)C1     activation            0.61
30  C=C1CCN([C@H](C(=O)NCc2cc(OC)c(OC)c(OC)c2)C(C)C)S(=O)(=O)c2ccccc21     activation            4.37
31      Cc1ccc(S(=O)(=O)NNC(=S)NC(C)(C)C)cc1     activation            4.04
32  CCOc1ccc2nc(Cl)c(C3CC(c4ccccc4)=NN3C(=O)c3cccs3)cc2c1 (centres undefined)     activation            1.83
33                  C[C@@H](O)c1nc2ccccc2n1N     activation            1.42
34  CN(C)CCCn1c(SCCN2C(=O)c3ccccc3C2=O)nc2ccccc2c1=O     activation           -1.16
35  CC(C)COC(=O)n1c(=O)oc2ccc(S(=O)(=O)N3CCCCC3)cc21     activation            0.62
36  O=C1CN(C(=O)c2ccccc2F)C(c2ccc(F)cc2)c2cc(F)ccc2N1 (centres undefined)     activation             -11
37  CC1(C)CC(N(Cc2ccccc2)C(=O)Cc2ccccc2)CCO1 (centres undefined)     activation           -16.2
38      CC[n+]1cc(C)ccc1/C=C/c1ccc(N(C)C)cc1     activation           -28.2
39  CCOc1ccc(NC(=O)CSc2ncnc3c2sc2ccccc23)cc1     activation            38.7
40  CC(C)(C)C(=O)CCN1C(=O)C2(OCCO2)c2ccccc21     activation            1.22
41  C=CCN1C(=O)[C@@H](CC(=O)NCCCCc2ccccc2)[C@]2(C(=O)OCC)CCCCC/C=C/12     activation            3.65
42                 Cc1oc2cc3oc(=O)ccc3cc2c1C     activation           -1.91
43  CCN(CC)C(CNC(=O)CSc1nnnn1-c1cccc(F)c1)c1ccco1 (centres undefined)     activation            2.86
44  C[C@@H](Nc1nc(-c2ccccc2)nc2c1oc1ccccc12)C(=O)O     activation            -3.4
